System: ACHN
run_description: NCI tumour cell line growth inhibition, 48 h
Active and inactive are the calls of the source. Rule as the data show it: active = GI50 up to about 1.1 µM and inactive = higher.
assay_readout: GI50

> print(dat)
                                   compound  assay.readout     reported.result
1  CCCCCCCCCCCCCCCC(=O)OCC1OC(OC)C(NC(=O)N(CCCl)N=O)C(O)C1O (stereo not drawn)           GI50  13.4 µM (inactive)
2  COC(=O)c1ccccc1CC1Cc2cccc(C)c2C1=O (stereo not drawn)           GI50  34.8 µM (inactive)

Next up:
Ask: Dear colleague, I am looking for the recorded GI50 of the following compound: `COC(=O)C1=C(C(=O)OC)SC2(S1)C1=C(CCC1)SC(C(=O)OC)=C2C(=O)OC`
Result: 12.3 µM (inactive)

* * *

System: A498
run_description: NCI tumour cell line growth inhibition, 48 h
The source made the active and inactive calls. Rule as the data show it: active = GI50 up to about 1.1 µM and inactive = higher.
Reported GI50 values for a set of molecules

Known results for molecules:
> print(dat)
                                   molecule  assay.readout     reported.result
1         C/C(=N\Nc1nc2ccccc2[nH]1)c1ccncn1           GI50   0.237 µM (active)
2  CC1=C(C)CC2(C=C(C(C)(C)C)C(=O)C(C(C)(C)C)=C2)SC1           GI50  17.5 µM (inactive)
3                 Nc1ccc(-c2nc3ccccc3s2)cc1           GI50  29.7 µM (inactive)

Ask: Dear colleague, I am looking for the recorded GI50 of the following molecule: `COC(=O)[C@@H](OC(C)=O)[C@@H](OC(C)=O)c1nnc2ccc(Cl)nn12`
Result: > 100 µM (inactive)

Ask: Dear colleague, I am looking for the recorded GI50 of the following molecule: O=C1C[C@@]23CCC4(CC2CCC[C@H]3O1)OCCO4 (some centres undefined)
Result: > 100 µM (inactive)

Ask: Dear colleague, I am looking for the recorded GI50 of the following molecule: CCCC1NC(=O)C(CC(C)C)NC(=O)c2cccc(n2)C(=O)NC(CC(C)C)C(=O)NC(CCC)C(=O)NC(C(=O)OC)CCCCNC1=O (centres undefined)
Result: > 100 µM (inactive)

* * *

Tested on: IGROV-1
run_description: NCI tumour cell line growth inhibition, 48 h
The source made the active and inactive calls. Rule as the data show it: active = GI50 up to about 1.1 µM and inactive = higher.
assay_readout: GI50

Known results for compounds:
compound	GI50
NC(=O)/C=C/c1c[nH]c2nccnc12	3.83 µM (inactive)
CC1(CCC2C=CCC2)CCCNC1=S (stereo not given)	> 10 µM (inactive)
Cc1ccc(/C=N/NS(=O)(=O)c2ccccc2)c(C)c1	> 100 µM (inactive)
CSC(=N/C=C/c1ccccc1)SC	73.6 µM (inactive)
O=C(NN=C(c1ccccc1)c1ccccc1)/C(O)=C/C(=O)c1ccc(Cl)cc1	27.7 µM (inactive)

Next up:
Ask: Dear colleague, I am looking for the recorded GI50 of the following compound: `N=c1nc2n(cc1F)[C@@H]1O[C@H](CO)[C@@H](O)[C@@H]1O2`
Result: 47.4 µM (inactive)

* * *

Test system: K562
run_description: NCI tumour cell line growth inhibition, 48 h
Active and inactive are the calls of the source. Rule as the data show it: active = GI50 up to about 1.1 µM and inactive = higher.
Bench note: report the call from active, inactive

Before answering, review these 5 worked examples.
> print(dat)
                                   compound  subject.of.test  discrete.label
1  CC(C)OCC1CC(CC(=O)Nc2nncs2)C(=O)O1 (stereo not drawn)             K562        inactive
2  c1ccc2c(c1)[nH]c1c2cc[n+]2cc3c(cc12)CCCC3             K562        inactive
3           Cc1ccc(/C(Cl)=C/C=C(C#N)C#N)cc1             K562          active
4  CC1=C2C(=O)O[C@@H](c3ccoc3)[C@]2(C)CCC1 [FRAXINELLONE]             K562        inactive
5  Cc1ccc2nc(-c3ccc(-c4nc5ccc(C)cc5o4)c(O)c3)oc2c1             K562        inactive

Ask: // param item: `CC1=C(C)CC2(C=C(C(C)(C)C)C(=O)C(C(C)(C)C)=C2)SC1` ; yields the recorded call
Result: inactive

Ask: // param item: CC(C)Oc1c(O)c2c3c(oc(=O)n3C=CC2c2ccccc2F)c1OC(C)C (stereo not drawn) ; yields the recorded call
Result: inactive

* * *

Reported GI50 values for a set of molecules
Tested on: MDA-MB-231
run_description: NCI tumour cell line growth inhibition, 48 h
The source made the active and inactive calls. Cut-off read from the data, not from the text of the source: active = GI50 up to about 1.1 µM and inactive = higher.

> print(dat)
                                   molecule  assay.readout      reported.result
1        O=C(Cn1ccnc1[N+](=O)[O-])N(CCO)CCO           GI50  > 250 µM (inactive)
2  COc1ccc2ccccc2c1C1NC(=O)c2ccccc2N1 (stereo not given)           GI50   3.63 µM (inactive)
3  CC1(CCC2C=CCC2)CCCNC1=S (stereo not given)           GI50   > 10 µM (inactive)

Ask: Dear colleague, I am looking for the recorded GI50 of the following molecule: Cc1ccccc1OC(C)C(=O)NN1C(=O)CSC1c1ccc(Cl)cc1 (stereo not given)
Result: 26.2 µM (inactive)

Ask: Dear colleague, I am looking for the recorded GI50 of the following molecule: `NC(=O)/C=C/c1c[nH]c2nccnc12`
Result: 3.71 µM (inactive)

Ask: Dear colleague, I am looking for the recorded GI50 of the following molecule: `Cn1c(=S)c2nc(SCCN3C(=O)c4ccccc4C3=O)[nH]c2n(C)c1=O`
Result: > 100 µM (inactive)

Ask: Dear colleague, I am looking for the recorded GI50 of the following molecule: `NS(=O)(=O)c1nnc(NC(=S)NC(=O)Nc2ccc(Cl)c(Cl)c2)s1`
Result: 30.4 µM (inactive)

Ask: Dear colleague, I am looking for the recorded GI50 of the following molecule: `CC(C)(C)c1nc2c(o1)/C(=N\c1ccc(F)cc1)c1ccccc1C2=O`
Result: 30.2 µM (inactive)

Ask: Dear colleague, I am looking for the recorded GI50 of the following molecule: CC1(C)OC2OC(C(=O)c3ccccc3)C3OC(C)(C)OC3C2O1 (stereo not given)
Result: > 100 µM (inactive)

Ask: Dear colleague, I am looking for the recorded GI50 of the following molecule: `Cc1ccc2occ/c(=N\Nc3ccccc3)c2c1`
Result: 88.5 µM (inactive)

* * *

Reported GI50 values for a set of compounds
Tested on: NCI-H23
run_description: NCI tumour cell line growth inhibition, 48 h
Calls of active or inactive are those of the source. No stated cut-off is given here; in the data, active = GI50 up to about 1.1 µM and inactive = higher.

> print(dat)
                              compound  assay.readout      reported.result
1  CNC(=O)N(CCC#N)CCN(C(=O)NC)c1ccccc1           GI50  > 100 µM (inactive)

Next up:
Ask: Dear colleague, I am looking for the recorded GI50 of the following compound: `CC(C)(C)CC(C)(C)c1cc(O)c(O)c(CN2CCCCC2)c1`
Result: 16.1 µM (inactive)

* * *

System: EKVX
run_description: NCI tumour cell line growth inhibition, 48 h
Calls of active or inactive are those of the source. Cut-off read from the data, not from the text of the source: active = GI50 up to about 1.1 µM and inactive = higher.
assay_readout: GI50

Ask: Dear colleague, I am looking for the recorded GI50 of the following molecule: NS(=O)(=O)c1ccc(NC(=O)C2C(=O)C(=O)N(c3ccc(S(N)(=O)=O)cc3)C2=O)cc1 (stereo unspecified)
Result: > 100 µM (inactive)

* * *

Test system: MCF7
run_description: NCI tumour cell line growth inhibition, 48 h
The source made the active and inactive calls. No stated cut-off is given here; in the data, active = GI50 up to about 1.1 µM and inactive = higher.
Bench note: report the call from 1 (active), -1 (inactive)

Before answering, review these 5 worked examples.
> print(dat)
                                   compound  subject.of.test  discrete.label
1  CC(=O)/C(=C\NC(=S)Nc1ccc(S(N)(=O)=O)cc1)C(=O)Nc1ccccc1C             MCF7              -1
2       CNC(=O)N(CCC#N)CCN(C(=O)NC)c1ccccc1             MCF7              -1
3  O=C(c1ccccc1O)c1cc(-c2ncc3c(=O)c4ccccc4oc3n2)c(-c2ccccc2O)[nH]c1=O             MCF7              -1
4  CCCC(C(=O)Nc1cccc2nc[nH]c12)C(=O)OCC (stereo not drawn)             MCF7              -1
5                    O=Nn1c2ccccc2c2ccccc21             MCF7              -1

Ask: // param item: `COC(=O)c1cccc2c1Oc1ccccc1S2` ; yields the recorded call
Result: -1

Ask: // param item: NC(=O)C(c1ccccc1)N1OC2C(=O)N(c3cccc4ccccc34)C(=O)C2C1c1c2ccccc2c(Cl)c2ccccc12 (stereo not drawn) ; yields the recorded call
Result: -1

Ask: // param item: Clc1ccc(Cc2nc3cc(Cl)c(Cl)cc3n2CC2CCCN3CCCCC23)cc1 (stereo not drawn) ; yields the recorded call
Result: -1

Ask: // param item: `O=C(O)CNCCc1ccccc1` ; yields the recorded call
Result: -1

Ask: // param item: `CC(C)(C)c1nc2c(o1)/C(=N\c1ccc(F)cc1)c1ccccc1C2=O` ; yields the recorded call
Result: -1

Ask: // param item: `Nc1ccc(-c2nc3ccccc3s2)cc1` ; yields the recorded call
Result: -1

Ask: // param item: `CN(C)/C=C/c1nnnn1-c1ccc(I)cc1` ; yields the recorded call
Result: -1
